Parameter IC50: see the listing below.
- Test system: OVCAR-3
- test_description: Antiproliferative activity against human OVCAR-3 cells after 72 hrs by MTT assay
- Format: functional, cell-based
- condition_description: OVCAR-3, 72 h
Kindly provide the numeric value in nM only, without the unit symbol.

CCOC(=O)N1C(C)CN(/[N+]([O-])=N/Oc2ccc([N+](=O)[O-])cc2[N+](=O)[O-])CC1C (configuration not stated)
4900

Q: Retrieve IC50 measured for `CCOC(=O)N1CCN(/[N+]([O-])=N/Oc2ccc([N+](=O)[O-])cc2[N+](=O)[O-])CC1` and print it.
A: 800

---

- target_system: Glutathione S-transferase P (Homo sapiens) (UniProt P09211)
- Sequence (P09211 2-210 limits assumed): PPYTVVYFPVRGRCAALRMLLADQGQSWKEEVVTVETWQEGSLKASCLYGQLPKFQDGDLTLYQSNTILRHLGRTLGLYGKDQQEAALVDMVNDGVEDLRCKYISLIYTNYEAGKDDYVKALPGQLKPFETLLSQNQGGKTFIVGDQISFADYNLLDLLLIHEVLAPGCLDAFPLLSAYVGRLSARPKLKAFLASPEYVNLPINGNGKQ
- test_description: Specific activity of human Glutathione S-transferase P at 50 uM by spectrophotometric analysis in presence of glutathione relative to O2-(2,4-dinitrophenyl) 1-[(4-ethoxycarbonyl)piperazin-1-yl]diazen-1-ium-1,2-diolate
Threshold rule: Activity greater than or equal to 0.8 is 1.0; below that, 0.0.

Record excerpt, results attached:
CCOC(=O)N1CCN(/[N+]([O-])=N/Oc2ccc([N+](=O)[O-])cc2[N+](=O)[O-])C(C)C1 (stereo not drawn)
0.0
CCOC(=O)N1C(C)CN(/[N+]([O-])=N/Oc2ccc([N+](=O)[O-])cc2[N+](=O)[O-])CC1C (stereo not drawn)
1.0
CCOC(=O)N1CCN(/[N+]([O-])=N/Oc2ccc([N+](=O)[O-])cc2[N+](=O)[O-])CC1
1.0

Q: Textbook exercise: given the entry `CCCOC(=O)N1CCN(/[N+]([O-])=N/Oc2ccc([N+](=O)[O-])cc2[N+](=O)[O-])CC1` , state whether its Activity is greater than or equal to 0.8.
A: 1.0

Q: hey, is Activity for this one >= 0.8? CCOC(=O)N1CC(C)N(/[N+]([O-])=N/Oc2ccc([N+](=O)[O-])cc2[N+](=O)[O-])CC1C (stereo not drawn)
A: 0.0

Q: Determine whether this molecule has Activity no lower than 0.8: CCOC(=O)N1CCN(/[N+]([O-])=N/Oc2ccc([N+](=O)[O-])cc2[N+](=O)[O-])CC1C (stereo not drawn)
A: 1.0

Q: Exam item: decide whether the reported Activity for `COC(=O)N1CCN(/[N+]([O-])=N/Oc2ccc([N+](=O)[O-])cc2[N+](=O)[O-])CC1` is at least 0.8.
A: 0.0

Q: # bool: Activity of `CCOC(=O)N1CCCN(/[N+]([O-])=N/Oc2ccc([N+](=O)[O-])cc2[N+](=O)[O-])CC1` >= 0.8
A: 0.0

---

- test_description: Stability assessed as nitric oxide release in 0.1 M phosphate buffer at pH 7.4 at 100 to 150 nM measured per mole in presence of glutathione by chemiluminescence analysis
- Assay type: physicochemical
metric: Activity
Could you kindly put the unit after your number?

Below, 2 compounds whose answers are already recorded.
CCOC(=O)N1CCN(/[N+]([O-])=N/Oc2ccc([N+](=O)[O-])cc2[N+](=O)[O-])CC1
1.7 mol/mol
CCOC(=O)N1C(C)CN(/[N+]([O-])=N/Oc2ccc([N+](=O)[O-])cc2[N+](=O)[O-])CC1C (stereo not drawn)
1.75 mol/mol

Continue with the compound presented below.
Q: Recall and state the measured Activity for `CCCOC(=O)N1CCN(/[N+]([O-])=N/Oc2ccc([N+](=O)[O-])cc2[N+](=O)[O-])CC1` .
A: 2 mol/mol
